experimentalSystem: KPNA4 ARM (importin subunit alpha-3, armadillo repeat domain) (human) (UniProt O00629)
Sequence (O00629 whole entry, the tested form may be a part): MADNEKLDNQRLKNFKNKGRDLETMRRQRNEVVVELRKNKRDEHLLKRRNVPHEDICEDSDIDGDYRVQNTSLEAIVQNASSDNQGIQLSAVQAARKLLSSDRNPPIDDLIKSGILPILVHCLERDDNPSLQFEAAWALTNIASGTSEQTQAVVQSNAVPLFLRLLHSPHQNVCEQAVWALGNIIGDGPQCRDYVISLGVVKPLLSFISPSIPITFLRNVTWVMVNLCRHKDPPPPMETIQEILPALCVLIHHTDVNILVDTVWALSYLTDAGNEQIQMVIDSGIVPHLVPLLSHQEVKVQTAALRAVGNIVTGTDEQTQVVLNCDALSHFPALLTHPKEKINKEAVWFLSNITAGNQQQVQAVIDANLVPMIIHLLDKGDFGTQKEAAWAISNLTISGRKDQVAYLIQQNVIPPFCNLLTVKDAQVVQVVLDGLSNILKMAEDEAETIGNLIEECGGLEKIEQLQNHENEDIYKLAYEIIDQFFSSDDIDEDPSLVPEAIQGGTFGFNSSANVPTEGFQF
protocolDetails: fluorescence polarisation; competition: unlabelled peptide in serial dilution against KPNA4 ARM (master mix at four times the KD) with the probe FITC-NCOR2(1307-1322), probe of the minor pocket; 50 mM KPO4 pH 7.5; Ki calculated from IC50
pKi: −log10 of the molar value. Where no end group is shown, it is not given here. [ ]: non-standard residue; d: D form. pY = N[C@@H](Cc1ccc(OP(=O)(O)O)cc1)C(=O)O; pS = N[C@@H](COP(=O)(O)O)C(=O)O
quantityKind: pKi

Worked examples follow.
// lookup pKi for PFKRPHSTISDSSTSS-NH2 [PLEKHG4B 1183-1198 peptide]
5.92

// lookup pKi for GKKRTFDETVSTYVPL-NH2 [TPX2 312-327 peptide]
7.33

// lookup pKi for Ac-EISLKRS[pY]ESVEGNIK-NH2 (SMILES CC[C@H](C)[C@H](NC(=O)[C@H](CC(N)=O)NC(=O)CNC(=O)[C@H](CCC(=O)O)NC(=O)[C@@H](NC(=O)[C@H](CO)NC(=O)[C@H](CCC(=O)O)NC(=O)[C@H](Cc1ccc(OP(=O)(O)O)cc1)NC(=O)[C@H](CO)NC(=O)[C@H](CCCNC(=N)N)NC(=O)[C@H](CCCCN)NC(=O)[C@H](CC(C)C)NC(=O)[C@H](CO)NC(=O)[C@@H](NC(=O)[C@H](CCC(=O)O)NC(C)=O)[C@@H](C)CC)C(C)C)C(=O)N[C@@H](CCCCN)C(N)=O) [NCOR1 1240-1255 peptide, pY1247]
5.17

// lookup pKi for Ac-EISLKR[pS]YESVEGNIK-NH2 (SMILES CC[C@H](C)[C@H](NC(=O)[C@H](CC(N)=O)NC(=O)CNC(=O)[C@H](CCC(=O)O)NC(=O)[C@@H](NC(=O)[C@H](CO)NC(=O)[C@H](CCC(=O)O)NC(=O)[C@H](Cc1ccc(O)cc1)NC(=O)[C@H](COP(=O)(O)O)NC(=O)[C@H](CCCNC(=N)N)NC(=O)[C@H](CCCCN)NC(=O)[C@H](CC(C)C)NC(=O)[C@H](CO)NC(=O)[C@@H](NC(=O)[C@H](CCC(=O)O)NC(C)=O)[C@@H](C)CC)C(C)C)C(=O)N[C@@H](CCCCN)C(N)=O) [NCOR1 1240-1255 peptide, pS1246]
4.09

P: ELKRKLEQEQKLVEVL-NH2 [MKL2 572-587 peptide]
Q: AGVKRSAAEMYGSVTE-NH2 [HNRNPC 95-110 peptide]
R: SLAPVKRTYEQMEFPL-NH2 [ADNP 711-726 peptide]
S: IPEKKQRLEEATTICL-NH2 [AFF2 864-879 peptide]
T: STMKRKHDEIQRSLPV-NH2 [ZBED9 651-666 peptide]
Write the entries in order, lowest recorded pKi first. Answer with the labels in sequence, matching the requested order.
S, P, T, R, Q
(S: 2.85, P: 4.89, T: 6.11, R: 6.42, Q: 7.03)
